# method.description: WHO-TDR: Cytotoxicity
# Format: toxicity, cell-based
# recorded.conditions: human, MRC5 cells
Entries and their measured IC50 follow.

{"compound": "CS(=O)(=O)c1ccc2nc(N(Cc3cccnc3)C(=O)c3cccc(Oc4ccccc4)c3)sc2c1", "IC50": "> 15.5 µg/mL"}
{"compound": "CCCc1nnc(NC(=O)CSc2ccc(NC(=O)c3cccs3)nn2)s1", "IC50": "> 12.6 µg/mL"}
{"compound": "N#Cc1ccsc1NC(=O)C(c1ccccc1)c1ccccc1", "IC50": "> 9.55 µg/mL"}
{"compound": "O=C(Cc1csc(Nc2ccc(OC(F)(F)F)cc2)n1)NCC1CCCO1 (stereo unspecified)", "IC50": "> 12 µg/mL"}
{"compound": "CCOC(=O)c1c(NC(=O)C(C)Sc2nnc(NC(C)=O)s2)sc2c1CCCC2 (stereo unspecified)", "IC50": "> 13.6 µg/mL"}
{"compound": "CCC(C(=O)Nc1cc(-c2cn3nc(OC)ccc3n2)ccc1Cl)c1ccccc1 (stereo unspecified)", "IC50": "> 12.6 µg/mL"}

###

# Test system: Schistosoma mansoni
# method.description: WHO-TDR: Schistosomiasis
# Type: functional
# Parameters: concentration or dose not given beside the values

{"compound": "CCOC(=O)c1ccc(NC(=O)CSc2c(C)[nH]c3ccccc23)cc1", "unit.of.measurement": "%", "% Inhibition": 0}
{"compound": "O=C(CSc1ccc(F)cc1)N(CCCn1ccnc1)c1nc2c(F)cccc2s1", "unit.of.measurement": "%", "% Inhibition": 0}
{"compound": "Cc1cccc(Nc2nc(Nc3ccc4c(c3)OCO4)nc(N3CCOCC3)n2)c1", "unit.of.measurement": "%", "% Inhibition": 0}
{"compound": "O=C(Nc1nnc(-c2ccc(Br)s2)o1)C1CCCN1S(=O)(=O)c1cccs1 (centres undefined)", "unit.of.measurement": "%", "% Inhibition": 8.3}
{"compound": "COc1ccc(CC(=O)N2CCN(c3nccn3-c3cccc(Cl)c3)CC2)cc1OC", "unit.of.measurement": "%", "% Inhibition": 16.7}
{"compound": "COc1ccc(N2CCN(C(=O)c3csc(NC(=O)c4ccccc4)n3)CC2)cc1", "unit.of.measurement": "%", "% Inhibition": 0}
{"compound": "Cc1ccc(C)c2sc(N(CCCn3ccnc3)C(=O)Cc3ccc(F)cc3)nc12", "unit.of.measurement": "%", "% Inhibition": 0}
{"compound": "Cc1ccnc(Nc2ccc(NCCNC(=O)c3ccc(F)cc3Cl)nn2)c1", "unit.of.measurement": "%", "% Inhibition": 0}
{"compound": "Cc1ccc(N2CCn3c2nnc(C(=O)NCCC2=CCCCC2)c3=O)cc1", "unit.of.measurement": "%", "% Inhibition": 0}

###

# System: Leishmania infantum
# method.description: WHO-TDR: Leishmaniasis
# Assay type: functional, organism-based, Mus musculus
# recorded.conditions: Macrophage

{"compound": "O=C(CCc1csc(NC(=O)c2ccco2)n1)NCc1c(F)cccc1F", "IC50": "> 11.7 µg/mL"}
{"compound": "O=C(CS(=O)(=O)Cc1ccccc1)Nc1cc(Cl)cc(Cl)c1", "IC50": "> 10.7 µg/mL"}
{"compound": "CN1CCCc2cc(C(CNC(=O)c3ccc4c(c3)OCO4)N3CCOCC3)ccc21 (stereo unspecified)", "IC50": "> 12.7 µg/mL"}
{"compound": "O=C(CSC1=Nc2cccnc2Nc2ccccc21)Nc1ccc(OC(F)(F)F)cc1", "IC50": "> 13.3 µg/mL"}
{"compound": "O=C(Nc1ccc2c(c1)N(C(=O)c1cccs1)CC2)c1cc2ccccc2oc1=O", "IC50": "0.404 µg/mL"}
{"compound": "O=C(NCC(c1ccco1)N1CCN(c2ccc(F)cc2)CC1)OCc1ccccc1 (stereo unspecified)", "IC50": "> 12.7 µg/mL"}
